Sourced from ChEMBL document CHEMBL1143794

assay: Bioavailability in rat at 25 mg/kg, po; format: ADME, organism-based; conditions: in vivo
I'd appreciate it if you could supply bioavailability values for the items below.
Only the number, expressed in %, is required.

Which measured bioavailability value corresponds to Cc1cccc(C)c1-c1cc(C)c2nc(Nc3ccc(OCCN4CCCC4)cc3)nnc2c1 ?
20

Which measured bioavailability value corresponds to Cc1cc(-c2c(Cl)cccc2Cl)cc2nnc(Nc3ccc(OCCN4CCCC4)cc3)nc12 ?
35

###

quantity.kind: Ki (nM)
Only the number, expressed in nM, is required.

Ki of Cc1cc(-c2c(Cl)cccc2Cl)cc2nnc(Nc3ccc(OCCN4CCCC4)cc3)nc12 on Platelet-derived growth factor receptor beta (Homo sapiens, UniProt P09619)?
2090
